- Assay System: BRD2-BD1 (Homo sapiens (Human), UniProt P25440)
- Sequence (P25440 74-180): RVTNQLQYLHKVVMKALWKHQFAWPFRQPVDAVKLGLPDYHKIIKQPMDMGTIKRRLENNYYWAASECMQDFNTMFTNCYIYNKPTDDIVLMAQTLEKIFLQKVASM
- Method Summary: competitive TR-FRET assay, BET-BD with acetylated peptide ligand
- Assay type: binding
- Condition Notes: BRD2-BD1; Table 11 additional modifications; read-out: 2.1 EC50
Provide the reported pEC50 of each item.
Answers are plain numbers, as −log10 of the molar value.

Return reported pEC50 values for all items listed beneath this line.
1. CC(=O)Nc1cccc(-c2ccc3c(c2)[C@H](NC(=O)Cc2ccccc2)C[C@H](C)N3C(C)=O)c1 [compound 64]
2. CC(=O)Nc1cccc(-c2ccc3c(c2)[C@H](Nc2ccc(CN)cc2)C[C@H](C)N3C(C)=O)c1 [compound 26]
3. CC(=O)Nc1cccc(-c2ccc3c(c2)[C@H](Nc2cccc(OC(F)(F)F)c2)C[C@H](C)N3C(C)=O)c1 [compound 22]
4. CC(=O)N1c2ccc(-c3cccc(NC(=O)c4ccccc4)c3)cc2[C@H](NC(=O)OC(C)C)C[C@@H]1C [compound 107]

[5.09, 6.33, 4.59, 5.92]

---

- Assay System: BRD2-BD2 (Homo sapiens (Human))
- Sequence (P25440 344-453): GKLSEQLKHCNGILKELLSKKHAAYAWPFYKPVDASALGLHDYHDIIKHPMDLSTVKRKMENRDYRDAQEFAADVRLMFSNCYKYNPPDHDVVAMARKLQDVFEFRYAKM
- Method Summary: competitive TR-FRET assay, BET-BD with acetylated peptide ligand
- Assay type: binding
- Condition Notes: ratio of BRD2-BD1 EC50 to BRD2-BD2 EC50 (selectivity)
- Protocol: Inhibitor potency was determined using a competitive TR-FRET assay as detailed herein, measuring interaction of the respective BET-BD with an acetylated peptide ligand (Table 2).
Provide the recorded 2.1/2.2 for the entries that follow.
Answers are plain numbers.

compound=CC(=O)Nc1cccc(-c2ccc3c(c2)[C@H](NC2CCN(C)CC2)C[C@H](C)N3C(C)=O)c1 measurement=2.9
compound="CC(=O)N1c2ccc(-c3cccc(NCC4CCOC4)c3)cc2[C@H](Nc2ccccc2OC(F)(F)F)C[C@@H]1C (stereo partly drawn)" measurement=49

Shift focus to the following entry.
Need 2.1/2.2 of CC(=O)N1c2ccc(-c3ccc(N(C)C)cc3)cc2[C@H](NC(=O)OC(C)C)C[C@@H]1C , thanks.
1.9

src = patent US11028051B2
